Readings of koff for the listed binders
- TARGET_OF_ASSAY: T1, recombinant human IL-23 (human, UniProt P29460 23-328)
- T1 construct: also called Human recombinant IL-23
- T1 sequence 1: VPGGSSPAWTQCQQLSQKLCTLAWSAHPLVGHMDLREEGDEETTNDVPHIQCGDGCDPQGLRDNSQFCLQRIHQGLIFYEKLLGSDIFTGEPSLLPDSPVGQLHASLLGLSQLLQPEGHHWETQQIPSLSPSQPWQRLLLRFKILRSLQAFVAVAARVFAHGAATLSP
- T1 sequence 2: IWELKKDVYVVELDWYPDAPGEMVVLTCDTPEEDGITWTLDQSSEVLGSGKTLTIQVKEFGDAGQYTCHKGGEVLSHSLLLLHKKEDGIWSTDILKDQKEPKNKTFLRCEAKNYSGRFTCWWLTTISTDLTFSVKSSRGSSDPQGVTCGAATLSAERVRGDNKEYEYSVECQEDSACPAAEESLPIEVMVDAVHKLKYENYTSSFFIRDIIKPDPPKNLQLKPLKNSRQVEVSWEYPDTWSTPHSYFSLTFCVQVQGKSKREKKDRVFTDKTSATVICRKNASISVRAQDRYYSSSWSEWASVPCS
- MEASUREMENT_NOTES: BLI, Fortebio Octet; hybridoma-derived antibody
Lab book: enter the figure in s⁻¹, no units written.

For 24A5 (antibody, V domains shown, Mouse monoclonal antibody from hybridoma; also called 24A54vk; 24A5vh) VH: EVQLQQSGPELVKPGASVKMSCKASGYTFTTSIMHWVKQKPGQGLEWIGYINPYDDVTKYNEKFKGKATLTSDKSSSTAYMELSSLTSEDSAVYYCVRRWDEAYWGQGTLVTVSA VL: DIVMTQSPATLSVTPGNRVSLSCRASQSISDYLHWYQQKSHESPRLLIKYASQSISGIPSRFSGSGSGSNFTLSINSVEPEDVGVYYCQNGHSFPFTFGSGTKLEIK , what is its reported koff?
4.57e-06

State the recorded koff for this entry: 18D3 (antibody, V domains shown, Mouse monoclonal antibody from hybridoma; also called 18D3vk; 18D3vh) VH: EVQLQQSGPELVKPGASVKMSCKASGYTFTRYLIHWVKQKPGQGLEWIGYINPYNDGTKYNEKFKGKATLTSDKSSSTAYMELSSLTSEDSAVYYCTSNWDLDYWGQGTTLTVSS VL: DIVMTQSPATLSVTPGDRVSLSCRASQSISDYLYWYQQKSHESPRLLIKFASQSISGIPSRFTGSGSGSDFTLSIDSVEPDDVGVFFCQNGHSFPFTFGGGTKLEIK
2.16e-06
